Recorded peptide exchange yield values for a group of binders are listed next.
Target: T1, HLA-A*02:01 (human)
T1 construct: MHC class I monomer of the UV-ligand exchange assay; also called peptide-receptive MHC molecules; MHC class I
Test: UV peptide-exchange ELISA

binder	peptide exchange yield
FLHDHQAEL	20 to 50%
SLIKYFLFV	10 to 20%
VLWELAHLPTL	50 to 75%
LLVLIPVYL	10 to 20%
